- subject_of_test: T1, MAGI1-2/6 (MBP fusion of the second of the six PDZ domains of MAGI1) (mouse, UniProt Q6RHR9-1 448-572)
- T1 construct: source: E. coli BL21 DE3, purified (amylose column, Superdex 75 gel filtration)
- assay_explanation: SPR
- condition_label: both partners purified
pKd: −log10 of the molar value. Ends that are not written are not given here. * marks the point of attachment. Biotin = O=C1N[C@H]2[C@H](CS[C@H]2CCCCC(=O)*)N1
Mark Condition met for reported pKd of 4 or greater; mark Condition not met for anything smaller.

Recorded results for 4 binders are shown here.
- binder: "Biotin-SGGKRKETLV (also called NET1 long; source: synthetic peptide (JPT Peptide Technologies)) [NET1_10 (long peptide of Neuroepithelial cell-transforming gene 1 protein: the last ten residues)]"
  classification: "Condition met"
- binder: "Biotin-GSGAGPETLV (also called ARHGAP6 short; source: synthetic peptide (JPT Peptide Technologies)) [ARHGAP6_05 (short peptide of Rho GTPase-activating protein 6: GSGAG and the last five residues)]"
  classification: "Condition not met"
- binder: "Biotin-GSGAGIATEV (also called DLL1 short; source: synthetic peptide (JPT Peptide Technologies)) [DLL1_05 (short peptide of Delta-like protein 1: GSGAG and the last five residues)]"
  classification: "Condition met"
- binder: "Biotin-QDEKVKESYV (also called ABC1 long; source: synthetic peptide (JPT Peptide Technologies)) [ABC1_10 (long peptide of ATP-binding cassette sub-family A member 1: the last ten residues)]"
  classification: "Condition met"

stdin: Is the recorded value of pKd equal to or greater than 4 for this binder? Biotin-GSGAGKETLV (also called NET1 short; source: synthetic peptide (JPT Peptide Technologies))
stdout: Condition met

stdin: Is the recorded value of pKd equal to or greater than 4 for this binder? Biotin-NPDALPETLV (also called ARHGAP6 long; source: synthetic peptide (JPT Peptide Technologies)) [ARHGAP6_10 (long peptide of Rho GTPase-activating protein 6: the last ten residues)]
stdout: Condition met

Hey, just so you know, these numbers are from paper PMC3206016.
